Where do the numbers come from? From patent US20220281976A1.

target: T1, human CD33 Fc fusion protein (human, UniProt P20138 18-259); test: ForteBio BLI or MSD-SET, IgG, avid;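 note: Anti-CD33 IgG affinity by BLI, IgG captured on AHQ sensors with antigen in solution and a one-to-one kinetic fit, or by MSD solution equilibrium titration with quadratic fit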
T1 construct: also called hCD33-Fc; human CD33/Fc chimera (R&D Systems)
T1 sequence (P20138 18-259 limits assumed): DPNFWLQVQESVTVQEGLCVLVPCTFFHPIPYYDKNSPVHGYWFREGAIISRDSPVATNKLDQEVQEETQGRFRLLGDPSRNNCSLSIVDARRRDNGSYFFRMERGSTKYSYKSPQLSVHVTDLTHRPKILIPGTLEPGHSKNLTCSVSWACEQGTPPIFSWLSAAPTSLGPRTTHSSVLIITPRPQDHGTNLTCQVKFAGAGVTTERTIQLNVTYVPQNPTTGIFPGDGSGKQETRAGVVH
# reported pKd; entries follow
In textbook form, pKd equals minus log to base ten of the concentration in mol/L.

Query :: Please look up its pKd: C-28 (antibody, V domains shown, human IgG1) VH: EVQLVESGGGLVQPGGSLRLSCAASGFTFSSYWMSWVRQAPGKGLEWVANINQDGSEKYYVDSVKGRFTISRDNAKNSLYLQMNSLRAEDTAVYYCAREGRRTMNAFDIWGQGTMVTVSS VL: DIQMTQSPSSLSASVGDRVTITCRASQSISSYLNWYQQKPGKAPKLLIYGASSLQSGVPSRFSGSGSGTDFTLTISSLQPEDFATYYCQQGYDVPITFGGGTKVEIK
Result :: 8.99
